From: patent US9255103B2

Molecular target: UniProtKB P41594
Assay: Cell-based functional Ca2+ mobilization assay (FDSS), potentiation of glutamate EC20 response in H10H cell line
Settings: HEK cells transfected with human mGluR5 (H10H), presence of glutamate EC20; read-out: EC50
Value Kind: EC50 (nM)
Record the value in nM, omitting the unit from your answer.

Compound: N#Cc1cc(F)cc(C(=O)N2CCn3nc(COc4cccc(F)c4)cc3C2)c1 [Compound 31]
Number: 170

Compound: O=C(c1ccc(F)cc1F)N1CCn2nc(COc3cccc(F)c3)cc2C1 [Compound 11]
Number: 273

Compound: O=C(c1ccc(F)cc1)N1CCn2nc(COc3ccccc3)c(Cl)c2C1 [Compound 55]
Number: 2950

Compound: CC1Cn2nc(COc3ccccc3)cc2CN1C(=O)c1ccc(F)cc1 (stereo not drawn) [Compound 45]
Number: 240

Compound: Cc1cccc(C(=O)N2CCn3nc(COc4cccc(F)c4)cc3C2)n1 [Compound 24]
Number: 3030

Compound: O=C(c1cccc(F)c1)N1CCn2nc(COc3cccc(F)c3)cc2C1 [Compound 10]
Number: 269

Attention now shifts to the item below.
Find the measured EC50: item N#Cc1cc(F)cc(C(=O)N2CCn3nc(COc4ccccc4)cc3C2)c1 [Compound 26] , target or system UniProtKB P41594.
83

----------
Target: human mGluR5a receptor (Homo sapiens)
Assay: Cell-based functional Ca2+ mobilization assay (FDSS), potentiation of glutamate EC20 response in H10H cell line
Conditions: HEK cells transfected with human mGluR5 (H10H), presence of glutamate EC20; read-out: EC50
Below, each entry is listed alongside its reported EC50.
Write the answer as a number in µM, unit excluded.

Example results:
Compound: CC1CN(C(=O)c2ccc(F)cc2)Cc2cc(COc3ccccc3)nn21 (centres unmarked) [Compound 41]
Test System: human mGluR5a receptor (Homo sapiens)
Unit Abbreviation: µM
Number: 0.162
//
Compound: Cc1ncccc1C(=O)N1CCn2nc(COc3cccc(F)c3)cc2C1 [Compound 22]
Test System: human mGluR5a receptor (Homo sapiens)
Unit Abbreviation: µM
Number: 2.91

Give its EC50 value. Item: CC1Cn2nc(COc3ccccc3)cc2CN1C(=O)c1cc(F)cc(C#N)c1 (centres unmarked) [Compound 51]
0.759

I would be grateful if you could share the reported EC50 for O=C(c1cccc(F)c1)N1CCn2nc(COc3ccccc3)cc2C1 [Compound 3] .
0.169

What value of EC50 has been recorded for this entry: O=C(c1cccc(F)c1)N1CCn2nc(COc3ccc(F)cc3)cc2C1 [Compound 39]
0.209

----------
Molecular target: human mGluR5a receptor (Homo sapiens, UniProt P41594)
Sequence (P41594 21-1180 isoform P41594-2 limits assumed): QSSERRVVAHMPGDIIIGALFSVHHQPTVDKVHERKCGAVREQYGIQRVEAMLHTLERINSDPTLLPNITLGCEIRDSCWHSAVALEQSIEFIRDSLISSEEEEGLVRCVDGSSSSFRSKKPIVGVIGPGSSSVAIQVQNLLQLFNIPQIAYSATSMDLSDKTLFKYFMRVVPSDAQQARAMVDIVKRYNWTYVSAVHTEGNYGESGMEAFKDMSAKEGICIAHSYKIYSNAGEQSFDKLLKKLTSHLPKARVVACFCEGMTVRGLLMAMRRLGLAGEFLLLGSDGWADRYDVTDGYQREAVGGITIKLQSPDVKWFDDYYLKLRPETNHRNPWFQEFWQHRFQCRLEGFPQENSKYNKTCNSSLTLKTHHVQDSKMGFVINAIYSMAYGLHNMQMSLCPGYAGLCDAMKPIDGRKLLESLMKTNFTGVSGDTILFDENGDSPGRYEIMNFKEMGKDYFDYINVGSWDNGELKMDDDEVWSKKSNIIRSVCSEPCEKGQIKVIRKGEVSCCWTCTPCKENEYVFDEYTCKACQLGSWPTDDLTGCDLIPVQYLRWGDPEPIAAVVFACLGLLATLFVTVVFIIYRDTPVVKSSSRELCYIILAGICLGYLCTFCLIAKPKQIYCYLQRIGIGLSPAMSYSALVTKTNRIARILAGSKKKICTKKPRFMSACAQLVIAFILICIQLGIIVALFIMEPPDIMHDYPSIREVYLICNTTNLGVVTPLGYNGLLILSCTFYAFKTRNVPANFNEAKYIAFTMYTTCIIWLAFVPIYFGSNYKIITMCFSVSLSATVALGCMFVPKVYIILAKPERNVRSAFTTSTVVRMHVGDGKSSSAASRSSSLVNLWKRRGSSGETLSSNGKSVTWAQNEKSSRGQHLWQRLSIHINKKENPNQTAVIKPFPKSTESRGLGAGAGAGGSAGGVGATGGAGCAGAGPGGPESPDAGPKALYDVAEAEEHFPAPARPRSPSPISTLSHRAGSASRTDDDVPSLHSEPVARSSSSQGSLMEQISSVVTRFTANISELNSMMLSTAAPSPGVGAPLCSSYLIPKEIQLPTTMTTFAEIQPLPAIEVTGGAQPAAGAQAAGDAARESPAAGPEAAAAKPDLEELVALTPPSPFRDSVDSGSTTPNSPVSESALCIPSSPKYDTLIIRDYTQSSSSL
Assay: Cell-based functional Ca2+ mobilization assay (FDSS), potentiation of glutamate EC20 response in H10H cell line
Details: HEK cells transfected with human mGluR5 (H10H), presence of glutamate EC20; read-out: EC50
Experimental: Human embryonic kidney (HEK) cells transfected with rat mGluR5 were plated in clear bottom assay plates for assay in a Functional Drug Screening System (FDSS). […] After establishment of a fluorescence baseline for twelve seconds, the compounds of the present invention were added to the cells, and the response in cells was measured. […] Five minutes later, an mGluR5 agonist (e.g., glutamate, 3,5-dihydroxyphenylglycine, or quisqualate) was added to the cells, and the response of the cells was measured. […]
Overview of reported EC50 across a group of compounds:
Write the number in nM without appending the unit.

These solved cases illustrate the format of a correct answer.
Compound: CC1Cn2nc(COc3ccccc3)cc2CN1C(=O)c1cccc(F)c1 (centres unmarked) [Compound 48]
Unit Abbreviation: nM
EC50: 490
--
Compound: CC1CN(C(=O)c2cccc(F)c2)Cc2cc(COc3ccccc3)nn21 (centres unmarked) [Compound 42]
Unit Abbreviation: nM
EC50: 138

Reported EC50 for Cc1c(COc2ccccc2)nn2c1CN(C(=O)c1ccc(F)cc1)CC2 [Compound 57] : what is it?
3020

Entry under review: CC1CN(C(=O)c2cc(F)cc(C#N)c2)Cc2cc(COc3ccccc3)nn21 (centres unmarked) [Compound 44] . Reported EC50?
692
